So I've got a bunch of variants here, and I need their abundance fitness values.
B1: GA-binding protein alpha chain, residues 172 to 250; numbered along this chain, Q06546 (parent)
chain: GYRKEQERLGIPYDPIQWSTDQVLHWVVWVMKEFSMTDIDLTTLNISGRELCSLNQEDFFQRVPRGEILWSHLELLRKY

Variants of: B1
Assay: abundance fitness (aPCA) (normalised: wild type 0, dead -1); higher = more abundant; growth selection in yeast, the domain comes from the species named
Settings: Homo sapiens
Give bare numbers.

[[record]]
alteration = "I68F"
metric_name = "abundance fitness"
measured_value = -0.053


# per-item lookup of abundance fitness; items listed below
1. L9V
2. I68S
3. L9N

Return:
1. -0.013
2. -0.076
3. -0.08

# per-item lookup of abundance fitness; items listed below
1. R49E
2. V28E
3. S71H
4. D38T
5. E67H
6. G66T
7. Q22V

Return:
1: 0.041; 2: -0.039; 3: -0.029; 4: -0.08; 5: 0.004; 6: -0.735; 7: -0.992

# per-item lookup of abundance fitness; items listed below
1. L44G
2. Y13D
3. M36A
4. D58I
5. Q56E

Return:
1. -0.711
2. -0.064
3. -0.025
4. -0.022
5. -0.015

# per-item lookup of abundance fitness; items listed below
1. I68M
2. Q17D
3. R49A
4. I39E
5. I11S
6. Y79A
7. Q56G

Return:
1. -0.091
2. 0.017
3. 0.006
4. -0.118
5. -0.842
6. -0.021
7. -0.245
